Please respond with reported IC50 for every item in the list.
- PROTOCOL NOTES: in vitro
- EXPERIMENTAL SETUP: human

Name the recorded IC50 for O=[N+]([O-])c1ccc(N=Nc2ccc(O)cc2O)cc1 [Compound 13] .
~2 µM

What about CN(C)c1ccc(N=Nc2ccc(N=C=S)cc2)cc1 [Compound 10] ?
> 100 µM

What about CN(C)c1ccc(N=Nc2ccc(N)cc2)cc1 [Compound 9] ?
> 100 µM

What about CN(C)c1ccc(N=Nc2ccccc2)cc1 [Compound 21, N,N-dimethyl-4-(phenyldiazenyl)aniline] ?
> 100 µM

---

- MEASUREMENT TARGET: Aβ1-42 peptide (Homo sapiens, UniProt P05067)
- Sequence (P05067 672-713): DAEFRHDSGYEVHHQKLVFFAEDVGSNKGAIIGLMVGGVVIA
- PROTOCOL NOTES: Thioflavin T (Thio T)-assay of Aβ aggregation
- Format: biochemical
- EXPERIMENTAL SETUP: 30 μM Aβ1-42 peptide, 48 h at 37° C., vs DMSO control; read-out: ThioT: IC50
Response field label: string, one of Satisfied (IC50 strictly below 2000 nM) or Not satisfied.

Strictly below 2000 nM in IC50? CCNc1ccc2ccccc2c1N=Nc1ccc(N=Nc2ccccc2)cc1 [Compound 7]
Not satisfied

What about Oc1ccc(N=Nc2ccccc2)c(O)c1 [Compound 15, 4-(phenyldiazenyl)benzene-1,3-diol] ?
Not satisfied

What about O=C(O)c1cc(N=Nc2ccccc2)ccc1O [A, 2-hydroxy-5-(phenyldiazenyl)benzoic acid, reference compound] ?
Not satisfied

What about O=S(=O)(O)c1cc(O)c2c(N=Nc3ccc(O)cc3O)cc(S(=O)(=O)O)cc2c1 [Compound 28] ?
Not satisfied

What about Nc1ccc(N=Nc2cccc(N=Nc3ccc(N)cc3N)c2)c(N)c1 [Compound 6] ?
Satisfied

What about Cc1cc(O)cc(O)c1N=Nc1nccs1 [Compound 22] ?
Not satisfied

What about Oc1ccc(N=Nc2cc(Cl)ccc2Cl)c(O)c1 [Compound 20] ?
Satisfied

What about Nc1ccc(N=Nc2ccc(Nc3ccccc3)cc2)cc1 [Compound 24] ?
Not satisfied

What about O=[N+]([O-])c1ccc(N=Nc2ccc(Nc3ccccc3)cc2)cc1 [Compound 2] ?
Satisfied

---

- PROTOCOL NOTES: Detection of compounds in brain after in vivo administration
- EXPERIMENTAL SETUP: B6C3 mouse, 5 mg/kg body weight i.v. once, brain samples
OBSERVATION TYPE: Detection in brain after i.v. administration

[[record]]
item_smiles = "O=[N+]([O-])c1ccc(N=Nc2ccc(O)cc2O)cc1"
value = "++"

[[record]]
item_smiles = "Oc1ccc2ccccc2c1N=Nc1ccccn1"
value = "++"

[[record]]
item_smiles = "Nc1ccc(N=Nc2cccc(N=Nc3ccc(N)cc3N)c2)c(N)c1"
value = "++"

[[record]]
item_smiles = "Oc1ccc(N=Nc2nccs2)c(O)c1"
value = "−"

[[record]]
item_smiles = "Cc1cc(O)cc(O)c1N=Nc1nccs1"
value = "−"

[[record]]
item_smiles = "Oc1ccc(N=Nc2cc(Cl)ccc2Cl)c(O)c1"
value = "++"


Name the recorded Detection in brain after i.v. administration for O=[N+]([O-])c1ccc(N=Nc2ccc(Nc3ccccc3)cc2)cc1 .
++

---

- PROTOCOL NOTES: Detection of compounds in brain after in vivo administration
- EXPERIMENTAL SETUP: mouse, five to seven doses over two or three days, sampling 30 min. after last application
OBSERVATION TYPE: Detection in brain after oral administration, oral gavage administration

[[record]]
item_smiles = "O=[N+]([O-])c1ccc(N=Nc2ccc(Nc3ccccc3)cc2)cc1"
value = "++^a), b)"

[[record]]
item_smiles = "O=[N+]([O-])c1ccc(N=Nc2ccc(O)cc2O)cc1"
value = "++^a), b)"

[[record]]
item_smiles = "c1ccc(N=Nc2ccc(Nc3ccccc3)cc2)cc1"
value = "++^a), b)"


---

- PROTOCOL NOTES: Detection of compounds in brain after in vivo administration
- EXPERIMENTAL SETUP: B6C3 mouse, 5 mg/kg body weight i.v. once, brain samples
OBSERVATION TYPE: Detection in brain after i.v. administration

[[record]]
compound = "CCNc1ccc2ccccc2c1N=Nc1ccc(N=Nc2ccccc2)cc1 [Compound 7]"
value = "++"

[[record]]
compound = "Oc1ccc(N=Nc2ccccn2)c(O)c1 [Compound 12, 4-(pyridin-2-yldiazenyl)benzene-1,3-diol]"
value = "−"

[[record]]
compound = "c1ccc(N=Nc2ccc(Nc3ccccc3)cc2)cc1 [Compound 1, N-phenyl-4-(phenyldiazenyl)aniline]"
value = "++"

[[record]]
compound = "Cc1cc(O)cc(O)c1N=Nc1ccc([N+](=O)[O-])cc1 [Compound 19]"
value = "++"


Next:
Name the recorded Detection in brain after i.v. administration for Cc1cc(N=Nc2nccs2)c(O)cc1O [Compound 18] .
++

---

- MEASUREMENT TARGET: Aβ1-42 peptide (Homo sapiens)
- PROTOCOL NOTES: Thioflavin T (Thio T)-assay of Aβ aggregation
- Type: biochemical
- EXPERIMENTAL SETUP: 30 μM Aβ1-42 peptide, 48 h at 37° C., vs DMSO control; read-out: ThioT: IC50
OBSERVATION TYPE: pIC50
Give only the number. pIC50 is defined as minus log10 of concentration in molar units.

Name the recorded pIC50 for Oc1ccc2ccccc2c1N=Nc1ccccn1 [Compound 5, 1-(pyridin-2-yldiazenyl)naphthalen-2-ol] .
4.91

What about Cc1cc(N=Nc2ccccc2C)ccc1N [Compound 26, 2-methyl-4-(o-tolyldiazenyl)aniline] ?
4.50

What about Oc1ccc2ccccc2c1N=Nc1ccccc1 [Compound 25, 1-(phenyldiazenyl)naphthalen-2-ol] ?
4.36

What about Nc1ccc(N=Nc2ccc([N+](=O)[O-])cc2)cc1 [Compound 3, 4-((4-nitrophenyl)diazenyl)aniline] ?
5.48

---

Please respond with reported IC50 at 48 h for every item in the list.
- PROTOCOL NOTES: in vitro
- EXPERIMENTAL SETUP: human

Name the recorded IC50 at 48 h for c1ccc(N=Nc2ccc(Nc3ccccc3)cc2)cc1 .
> 30 µM

What about Oc1ccc(N=Nc2nccs2)c(O)c1 ?
> 3 µM

What about O=[N+]([O-])c1ccc(N=Nc2ccc(Nc3ccccc3)cc2)cc1 ?
> 100 µM

What about Cc1cccc(N=Nc2cc(C=O)c(O)cc2O)c1 ?
> 30 µM

What about Oc1ccc(N=Nc2ccccc2)cc1 ?
~90 µM

What about Oc1ccc(N=Nc2ncn[nH]2)c(O)c1 ?
> 100 µM

What about Nc1ccc(N=Nc2cccc(N=Nc3ccc(N)cc3N)c2)c(N)c1 ?
~11 µM

What about Cc1cc(N=Nc2nccs2)c(O)cc1O ?
~13 µM

What about O=S(=O)(O)c1cccc(N=Nc2ccc(Nc3ccccc3)cc2)c1 ?
> 100 µM

What about Oc1ccc(N=Nc2cc(Cl)ccc2Cl)c(O)c1 ?
~3 µM
